Listed here: items and their measured inhibition.
Molecular target: Endoplasmic reticulum aminopeptidase 1 (Homo sapiens)
Test: inhibition of ERAP1 peptide trimming enzyme – biochemical, single point, plate reader, primary screen (AID 652197);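 note: 0% = neutral control wells and 100% = L-leucinethiol positive control wells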
Conditions: recombinant ERAP1, Leu-AMC fluorescence, 60 min; at 10.7 µM; active compounds read high
Screen size: about 340,000 compounds; about 500 (0.15%) were called active. This excerpt belongs to a sample that is enriched for actives.

> print(dat)
                                smiles.data                               measured.on     value.measured
1       O=C(NCCCNCc1ccccc1)c1ccc(/C=N/O)nc1  Endoplasmic reticulum aminopeptidase 1 (Homo sapiens)   4.32% (inactive)
2  Cc1ccc(S(=O)(=O)Nc2ccc3c(c2)C(=O)N([C@@H](C)CO)C[C@@H](C)[C@H](CN(C)Cc2ccc(Cl)c(Cl)c2)OCCCC[C@@H](C)O3)cc1  Endoplasmic reticulum aminopeptidase 1 (Homo sapiens)  0.461% (inactive)
3  C[N+](C)(C)CCNC(=O)c1cc[n+](Cc2ccccc2)c(/C=N/O)c1  Endoplasmic reticulum aminopeptidase 1 (Homo sapiens)      105% (active)

# lookup: inhibition of COc1ccc(NC(=O)N(C)C[C@@H]2OCCCC[C@H](C)Oc3ccc(NS(=O)(=O)c4cccs4)cc3C(=O)N([C@@H](C)CO)C[C@@H]2C)cc1
-4.78% (inactive)

# lookup: inhibition of COc1ccc(CCNC(=O)COC(=O)c2cnc(Cl)c(Cl)c2)cc1
-0.478% (inactive)

# lookup: inhibition of CC(C)NC(=O)N(C)C[C@@H]1Oc2ccc(N(C)C)cc2CC(=O)N([C@H](C)CO)C[C@@H]1C
2.87% (inactive)

# lookup: inhibition of CCC(=O)N1CC2(C1)[C@@H](c1ccc(C3=CCCC3)cc1)[C@@H](CO)N2C(=O)COC
-3.58% (inactive)

# lookup: inhibition of CCCC#Cc1ccc([C@H]2[C@H]3CN(C(=O)c4cccnc4)CC(=O)N3[C@H]2CO)cc1
-1.39% (inactive)

# lookup: inhibition of CCCNC(=O)C[C@H]1C[C@H]2c3cc(NC(=O)COC)ccc3O[C@H]2[C@H](CO)O1
0.774% (inactive)

# lookup: inhibition of COc1ccc(NC(=O)Nc2ccc3c(c2)C(=O)N([C@@H](C)CO)C[C@@H](C)[C@H](CN(C)S(=O)(=O)c2cccs2)O3)cc1
2.02% (inactive)

# lookup: inhibition of Cc1nc(N2[C@H](CO)[C@H](c3ccccc3)[C@H]2CNCC2CCC2)sc1C
2.07% (inactive)

# lookup: inhibition of C#Cc1ccc([C@H]2C=C(C(=O)O)O[C@@H](OCC)[C@@H]2CCCO)cc1
-6.5% (inactive)

* * *

Listed here: items and their measured inhibition.
Target: Endoplasmic reticulum aminopeptidase 1 (Homo sapiens) (UniProt Q9NZ08)
Sequence (Q9NZ08 whole entry, looked up): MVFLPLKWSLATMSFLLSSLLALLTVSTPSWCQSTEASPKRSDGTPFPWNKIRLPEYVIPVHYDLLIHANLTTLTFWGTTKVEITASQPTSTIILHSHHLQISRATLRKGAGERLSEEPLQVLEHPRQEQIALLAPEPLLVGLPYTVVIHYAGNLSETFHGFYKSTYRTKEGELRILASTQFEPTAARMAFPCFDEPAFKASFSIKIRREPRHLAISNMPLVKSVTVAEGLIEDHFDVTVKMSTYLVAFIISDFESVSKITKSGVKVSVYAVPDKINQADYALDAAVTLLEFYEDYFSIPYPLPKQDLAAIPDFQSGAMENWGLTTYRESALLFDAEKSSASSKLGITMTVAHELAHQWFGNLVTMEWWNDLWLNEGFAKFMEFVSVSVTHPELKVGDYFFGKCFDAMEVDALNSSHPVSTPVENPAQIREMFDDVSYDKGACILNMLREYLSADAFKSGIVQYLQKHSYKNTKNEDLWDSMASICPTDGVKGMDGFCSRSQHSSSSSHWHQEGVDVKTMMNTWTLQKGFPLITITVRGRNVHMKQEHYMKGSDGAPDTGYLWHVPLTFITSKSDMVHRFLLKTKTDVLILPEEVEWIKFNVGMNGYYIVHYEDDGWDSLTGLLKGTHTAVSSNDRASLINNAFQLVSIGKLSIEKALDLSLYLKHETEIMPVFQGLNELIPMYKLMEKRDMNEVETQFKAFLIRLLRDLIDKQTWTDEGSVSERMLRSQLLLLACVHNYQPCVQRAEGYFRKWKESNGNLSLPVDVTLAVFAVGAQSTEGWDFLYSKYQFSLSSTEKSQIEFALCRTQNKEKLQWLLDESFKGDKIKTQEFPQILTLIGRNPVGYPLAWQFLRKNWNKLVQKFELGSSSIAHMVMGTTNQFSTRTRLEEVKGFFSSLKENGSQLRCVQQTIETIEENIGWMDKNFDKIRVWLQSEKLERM
Assay: inhibition of ERAP1 peptide trimming enzyme – biochemical, single point, plate reader, primary screen (AID 652197);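 note: 0% = neutral control wells and 100% = L-leucinethiol positive control wells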
Details: recombinant ERAP1, Leu-AMC fluorescence, 60 min; at 10.7 µM; active compounds read high
Screen size: about 340,000 compounds; about 500 (0.15%) were called active. The sample as a whole holds a higher share of actives than the screen did.
Report as a plain number; the unit % is understood.

# lookup: inhibition of O=C(C[C@@H]1C=C[C@H](NC(=O)CN2CCOCC2)[C@@H](CO)O1)NCc1cccc(F)c1
0.919

# lookup: inhibition of COc1ccc(NC(=O)N2CC(=O)N3[C@H](CO)[C@@H](c4ccc(C#CCC5CCCC5)cc4)[C@H]3C2)cc1
-1.79

# lookup: inhibition of C[C@@H]1CCCCO[C@@H](CN(C)S(=O)(=O)c2cccs2)[C@H](C)CN([C@H](C)CO)C(=O)c2cc(NC(=O)CCCN(C)C)ccc2O1
0.521

* * *

Biological target: Endoplasmic reticulum aminopeptidase 1 (Homo sapiens)
Assay: inhibition of ERAP1 peptide trimming enzyme – biochemical, single point, plate reader, primary screen (AID 652197);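 note: 0% = neutral control wells and 100% = L-leucinethiol positive control wells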
Conditions: recombinant ERAP1, Leu-AMC fluorescence, 60 min; at 10.7 µM; active compounds read high
Among all 340,000 compounds or so, about 500 (0.15%) were called active. The full list was thinned out, with actives kept by preference.
Listed here: items and their measured inhibition.
Report as a plain number; the unit % is understood.

Reference set, count: 4
> print(dat)
                                smiles.data  value.measured
1  CCC(=O)N1CCC2(CC1)CN(S(C)(=O)=O)[C@@H](CO)c1c2c2ccc(OC)cc2n1C          -0.517
2  COc1ccc(NC(=O)N(C)C[C@H]2Oc3ccc(N(C)C)cc3C(=O)N([C@@H](C)CO)C[C@H]2C)cc1            3.18
3  COCCNC(=O)Nc1ccc2nc(-c3ccco3)c(-c3ccco3)nc2c1            30.5
4  COc1ccc2c3c(n(C)c2c1)[C@@H](CO)N(C(=O)CN1CCOCC1)CC31CCN(C(=O)C2CC2)CC1          -0.976

# lookup: inhibition of CN(C)C(=O)C[C@@H]1C[C@H]2c3cc(NC(=O)Nc4ccccc4F)ccc3O[C@H]2[C@@H](CO)O1
-1.15

# lookup: inhibition of CO[C@H]1CN(C)C(=O)c2ccc(NC(=O)c3ccc4c(c3)OCO4)cc2OC[C@@H](C)NC[C@@H]1C
0.503

* * *

Molecular target: Endoplasmic reticulum aminopeptidase 1 (Homo sapiens) (UniProt Q9NZ08)
Assay: inhibition of ERAP1 peptide trimming enzyme – biochemical, single point, plate reader, primary screen (AID 652197);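 note: 0% = neutral control wells and 100% = L-leucinethiol positive control wells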
Conditions: recombinant ERAP1, Leu-AMC fluorescence, 60 min; at 10.7 µM
Out of some 340,000 compounds screened, about 500 (0.15%) were called active.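 Rule for the calls: active = mean replicate inhibition of at least 30%, or all replicates individually reaching that 30% level; inactive = mean below 30% and not every replicate reaching it.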 This is one part of a sample in which actives are shown more often than they occur.
Pick one and only one: true (active), false (inactive)

> print(dat)
                                smiles.data  assigned.label
1  O=C(C[C@H]1C=C[C@H](NC(=O)Nc2cc(F)ccc2F)[C@@H](CO)O1)NCc1ccccn1           false
2  CN(C)C(=O)c1cccc(-c2ccc([C@H]3[C@@H](CO)N4C(=O)CN(C(=O)C5CC5)C[C@@H]34)cc2)c1           false
3  O=C1CN(C(=O)CN2C(=O)NC3(CCCCC3)C2=O)c2ccccc2N1           false
4  O=C(CN1C(=O)NC2(CCCCC2)C1=O)N1CCN(C(=O)c2cccs2)CC1            true

What did the test return for CO[C@@H]1CN(C)C(=O)c2ccc(NC(=O)Nc3c(C)noc3C)cc2OC[C@@H](C)N(C(=O)Nc2cccc(Cl)c2)C[C@H]1C ?
false

* * *

Molecular target: Endoplasmic reticulum aminopeptidase 1 (Homo sapiens)
Assay: inhibition of ERAP1 peptide trimming enzyme – biochemical, single point, plate reader, primary screen (AID 652197);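 note: 0% = neutral control wells and 100% = L-leucinethiol positive control wells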
Conditions: recombinant ERAP1, Leu-AMC fluorescence, 60 min; at 10.7 µM; active compounds read high
Among all 340,000 compounds or so, about 500 (0.15%) were called active. The sample as a whole holds a higher share of actives than the screen did.
REPORTED METRIC: inhibition (%)
Report as a plain number; the unit % is understood.

Reference set, count: 4
> print(dat)
                                smiles.data  value.measured
1  COc1ccc2c3c(n(C)c2c1)[C@H](CO)N(C(=O)NC(C)C)CC31CCN(C(=O)NC(C)C)CC1          -0.444
2  CC(C)NC(=O)N[C@H]1CC[C@@H](CC(=O)NCc2ccc(Oc3ccccc3)cc2)O[C@@H]1CO          -0.517
3  C[C@@H]1CN([C@H](C)CO)C(=O)c2cc(NS(=O)(=O)c3cn(C)cn3)ccc2O[C@@H](C)CCCCO[C@H]1CN(C)C            11.1
4  Cc1ccccc1NC(=O)Cc1nc(COC(=O)CNC(=O)c2ccc(Cl)cc2Cl)cs1           -1.49

# ---- query compound ----
What reported inhibition corresponds to COc1ccc(CNC(=O)C[C@H]2C[C@@H]3c4cc(NC(=O)NC5CCCC5)ccc4O[C@@H]3[C@H](CO)O2)cc1 on Endoplasmic reticulum aminopeptidase 1 (Homo sapiens)?
2.29

* * *

Molecular target: Endoplasmic reticulum aminopeptidase 1 (Homo sapiens) (UniProt Q9NZ08)
Assay: inhibition of ERAP1 peptide trimming enzyme – biochemical, single point, plate reader, primary screen (AID 652197);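 note: 0% = neutral control wells and 100% = L-leucinethiol positive control wells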
Conditions: recombinant ERAP1, Leu-AMC fluorescence, 60 min; at 10.7 µM; active compounds read high
Out of some 340,000 compounds screened, about 500 (0.15%) were called active. The list comes from a sample in which actives are over-represented; it also holds close analogues and randomly drawn compounds.
REPORTED METRIC: inhibition (%)
Report as a plain number; the unit % is understood.

> print(dat)
                                smiles.data                               measured.on  value.measured
1  O=C(Nc1cccc(F)c1)N1CC(=O)N2[C@H](C1)[C@H](c1ccc(-c3ccccc3F)cc1)[C@@H]2CO  Endoplasmic reticulum aminopeptidase 1 (Homo sapiens) (UniProt Q9NZ08)           0.092

What reported inhibition corresponds to O=C(C[C@H]1CC[C@H]2[C@@H](COC[C@@H](O)CN2Cc2nccs2)O1)NCc1ccccc1Cl on Endoplasmic reticulum aminopeptidase 1 (Homo sapiens) (UniProt Q9NZ08)?
0.949

What reported inhibition corresponds to C[C@H](NC(=O)[C@@H]1[C@@H](CO)[C@@H]2Cn3c(ccc(-c4cccc(F)c4)c3=O)[C@@H]2N1C)c1ccccc1 on Endoplasmic reticulum aminopeptidase 1 (Homo sapiens) (UniProt Q9NZ08)?
5.74

What reported inhibition corresponds to CCCNC(=O)Nc1ccc2c(c1)OC[C@H](C)N(CCC(F)(F)F)C[C@H](C)[C@@H](OC)CN(C)C2=O on Endoplasmic reticulum aminopeptidase 1 (Homo sapiens) (UniProt Q9NZ08)?
1.36

What reported inhibition corresponds to C[C@@H](NC(=O)C[C@H]1C=C[C@@H](NC(=O)CN2CCOCC2)[C@@H](CO)O1)c1ccccc1 on Endoplasmic reticulum aminopeptidase 1 (Homo sapiens) (UniProt Q9NZ08)?
9

What reported inhibition corresponds to C[C@@H]1CCCCO[C@H](CN(C)Cc2ccc(C(F)(F)F)cc2)[C@@H](C)CN([C@@H](C)CO)C(=O)c2cc(NC(=O)c3ccncc3)ccc2O1 on Endoplasmic reticulum aminopeptidase 1 (Homo sapiens) (UniProt Q9NZ08)?
-3.82

What reported inhibition corresponds to O=C(c1cccc(F)c1)N1CC[C@@H]2[C@H](CO)Nc3ccc(-c4ccccc4)cc3[C@@H]21 on Endoplasmic reticulum aminopeptidase 1 (Homo sapiens) (UniProt Q9NZ08)?
-0.032

What reported inhibition corresponds to N#C[C@@H]1[C@H](c2ccccc2-c2ccccc2F)[C@@H](CO)N1C(=O)C1CCOCC1 on Endoplasmic reticulum aminopeptidase 1 (Homo sapiens) (UniProt Q9NZ08)?
0.396

What reported inhibition corresponds to COc1cccc(NC(=O)N[C@H]2C=C[C@H](CC(=O)NCc3ccccn3)O[C@@H]2CO)c1 on Endoplasmic reticulum aminopeptidase 1 (Homo sapiens) (UniProt Q9NZ08)?
6.83

What reported inhibition corresponds to C[C@@H]1CCCCO[C@H](CN(C)C)[C@@H](C)CN([C@H](C)CO)C(=O)c2cc(N(C)C)ccc2O1 on Endoplasmic reticulum aminopeptidase 1 (Homo sapiens) (UniProt Q9NZ08)?
-1.68

What reported inhibition corresponds to CCCN1C[C@H](C)[C@@H](OC)CN(C)C(=O)c2ccc(NC(=O)c3cnccn3)cc2OC[C@H]1C on Endoplasmic reticulum aminopeptidase 1 (Homo sapiens) (UniProt Q9NZ08)?
4.52

What reported inhibition corresponds to Cc1noc(C)c1S(=O)(=O)Nc1ccc2c(c1)C(=O)N([C@H](C)CO)C[C@H](C)[C@H](CN(C)C(=O)CCC(F)(F)F)OCCCC[C@H](C)O2 on Endoplasmic reticulum aminopeptidase 1 (Homo sapiens) (UniProt Q9NZ08)?
0.261

What reported inhibition corresponds to COc1ccc(C#Cc2cnc3c(c2)C(=O)N([C@H](C)CO)C[C@@H](C)[C@@H](CN(C)C(=O)CN(C)C)O3)cc1 on Endoplasmic reticulum aminopeptidase 1 (Homo sapiens) (UniProt Q9NZ08)?
6.88
